system: HT55 (Colorectal Carcinoma); assay: combination Emax (second highest fraction inhibited in the dose matrix, 72 h); higher = more inhibition; extreme values may be limits of the assay
endpointName: combination Emax
In your answer, state the number alone without any accompanying words.

Ask: Tell me the measured combination Emax of C[C@@H](c1ccc2nccn2c1)n1nnc2ncc(-c3cnn(C)c3)nc21 [Savolitinib] + CN(CC[C@H](CSC1=CC=CC=C1)NC2=C(C=C(C=C2)S(=O)(=O)NC(=O)C3=CC=C(C=C3)N4CCC(CC4)[C@H](C5=CC=CC=C5C6=CC=C(C=C6)Cl)O)S(=O)(=O)C(F)(F)F)CCO [AZD4320] (first compound max 1 µM, 7x7, partner max 1 µM) , please.
Reply: 0.155
